The following compounds are listed with their measured photoluminescence quantum yield values.
Test: photoluminescence quantum yield (fraction); solvent given as SMILES
Conditions: in C1CCCCC1

| COMPOUND STRUCTURE | photoluminescence quantum yield |
| --- | --- |
| COc1ccc2c(c1)c1cc(OC)ccc1n2-c1cc(Cl)c([C](c2c(Cl)cc(Cl)cc2Cl)c2c(Cl)cc(Cl)cc2Cl)c(Cl)c1 | 0.006 |
| CN(C)c1ccc(/C=C/c2nc3ccccc3s2)cc1 | 0.001 |
| CCC(C)(C)c1ccc(-c2ccc3c(c2)C(CCOC)(CCOC)c2cc4c(cc2-3)C(CCOC)(CCOC)c2cc(-c3ccc(C(C)(C)CC)cc3)ccc2-4)cc1 | 0.86 |
| CC(=O)c1c2c(cc3ccc(N(C)C)cc13)CCC2 | 0.45 |
| CC1=[N+]2C(=Cc3ccc(C)n3[B-]2(F)F)C=C1c1cc2n(c1)[B-](F)(F)[N+]1=CC=CC1=C2c1c(C)cc(C)cc1C | 0.98 |
| Cc1cc2c(o1)c(C)cc1ccc(=O)oc12 | 0.0001 |
| Cc1ccc(/C=C/c2ccccc2-[n+]2noc([O-])c2C)cc1 | 0.0019 |
| COC(=O)c1nc(-c2ccccc2)oc1C | 0.36 |
| OB(O)c1ccc(-c2ccc(N(c3ccccc3)c3ccccc3)cc2)cc1 | 0.72 |

----------
Experiment: photoluminescence quantum yield (fraction); solvent given as SMILES
Settings: in ClC(Cl)Cl
Classification field: Criterion met = photoluminescence quantum yield at or over 0.4; Criterion not met = photoluminescence quantum yield under 0.4.

| COMPOUND STRUCTURE | LABEL VALUE |
| --- | --- |
| Cc1cc(=O)oc2cc3c(cc12)c1c2ccccc2c2ccccc2c1c1c2ccccc2c2ccccc2c31 | Criterion not met |
| CCCCc1cc(-c2cccc(COC)c2)oc1-c1cccc(-c2cc(CCCC)c(-c3cccc(-c4oc(-c5cccc(-c6oc(-c7cccc(COC)c7)cc6CCCC)c5)cc4CCCC)c3)o2)c1 | Criterion not met |
| CCCCN1C(=O)c2cc(Br)c3c4c(Br)c(Br)c5c6c(cc(Br)c(c7c(Br)c(Br)c(c2c37)C1=O)c64)C(=O)N(CCCC)C5=O | Criterion not met |
| COc1ccc2n1[B-](F)(F)[N+]1=C(c3ccccc3)C=CC1=C2c1ccc(C)cc1 | Criterion not met |
| COc1ccc(C2=CC(c3ccc4cc(N(C)C)ccc4c3)=[O+][B-](F)(F)O2)cc1 | Criterion met |
| N#Cc1ccc(C#Cc2ccc(C#Cc3ccccc3C#N)cc2C#N)cc1 | Criterion met |
| CCCN1c2ccccc2Sc2cc(/C=C\c3cc(=O)oc4ccccc34)ccc21 | Criterion met |
| CCCCCCCCn1c(=O)c2cc3c(-c4ccc(N(c5ccccc5)c5ccccc5)cc4)c4cc5c(=O)n(CCCCCCCC)c(=O)c5cc4c(-c4ccc(N(c5ccccc5)c5ccccc5)cc4)c3cc2c1=O | Criterion not met |

----------
Test: photoluminescence quantum yield (fraction); solvent given as SMILES
Details: in O

| COMPOUND STRUCTURE | photoluminescence quantum yield |
| --- | --- |
| CC(=O)c1ccc2ccc3c(NCCC(=O)NCCCCCCc4nc5c(=O)[nH]c(N)nc5n4[C@H]4C[C@H](O)[C@@H](CO)O4)ccc4ccc1c2c43 | 0.27 |
| CC[n+]1nc2cc3c4c(c2c2cc(C)ccc21)CCCN4CCC3 | 0.27 |
| Nc1cccc2cn[nH]c12 | 0.07 |
| CC1(C)C(/C=C/C=C/c2cc3ccc(O)cc3oc2=O)=[N+](CCCS(=O)(=O)[O-])c2ccc(S(=O)(=O)O)cc21 | 0.011 |
| Cc1ccc(C)c(C2=C3C=CC(=[N+](C)C)C=C3[Si](C)(C)c3cc(N(C)C)ccc32)c1 | 0.32 |
